test system: biotinyl-Phe-oxazolone; experiment: self-aminoacylation, catalytic enhancement (BFO) (fold over background); higher = more active; k-Seq, kA / k0A0; sequences stand for … in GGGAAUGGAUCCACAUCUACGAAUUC…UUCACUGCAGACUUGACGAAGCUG
This sample holds only a part of the variants without activity.

{"columns": ["residues", "experimental target", "self-aminoacylation"],
 "data": [
  ["AAGUUCGCCAAUAGUCGCAAG [Fam3.1 aminoacylation ribozyme variant]", "biotinyl-Phe-oxazolone", 2.83],
  ["CUACUUGAUACAAUCGGUCUG [Fam1A.1 aminoacylation ribozyme variant]", "biotinyl-Phe-oxazolone", 0.52],
  ["AAGUAUGCUAAUAGCCGCAAG [Fam3.1 aminoacylation ribozyme variant]", "biotinyl-Phe-oxazolone", 5.73],
  ["AUUCACGUAGGUCAUCGGGUG [Fam2.2 aminoacylation ribozyme variant]", "biotinyl-Phe-oxazolone", 53.2],
  ["AUCCACCUAGGUCAUCGGCUG [Fam2.2 aminoacylation ribozyme variant]", "biotinyl-Phe-oxazolone", 9.73],
  ["AUGACCCUGGUCAUCGAGUAA [Fam2.1 aminoacylation ribozyme variant]", "biotinyl-Phe-oxazolone", 31.5],
  ["AUUUCCCUGGUCAUCGUGUGA [Fam2.1 aminoacylation ribozyme variant]", "biotinyl-Phe-oxazolone", 27.1],
  ["CCACACUUCAACCAAUCGGGC [Fam1B.1 aminoacylation ribozyme variant]", "biotinyl-Phe-oxazolone", 3.78],
  ["AUUACCGUGGUCAUCGACUGA [Fam2.1 aminoacylation ribozyme variant]", "biotinyl-Phe-oxazolone", 0.518],
  ["AAGUUUCCUAUUAGUCGCAAG [Fam3.1 aminoacylation ribozyme variant]", "biotinyl-Phe-oxazolone", 1.87],
  ["AUACACCCAGGUCAUCGGGUG [Fam2.2 aminoacylation ribozyme variant]", "biotinyl-Phe-oxazolone", 32.7],
  ["AUUACUCUGGUCCUCGAGUGA [Fam2.1 aminoacylation ribozyme variant]", "biotinyl-Phe-oxazolone", 18.2],
  ["UUUACCGUGGUCAUCGAGUGA [Fam2.1 aminoacylation ribozyme variant]", "biotinyl-Phe-oxazolone", 17.7],
  ["AAGUAUGCUAAAAGUCGCAAG [Fam3.1 aminoacylation ribozyme variant]", "biotinyl-Phe-oxazolone", 8.97],
  ["AAGUUUGCGAAUAGUGGCAAG [Fam3.1 aminoacylation ribozyme variant]", "biotinyl-Phe-oxazolone", 2.12],
  ["CUUCGUCAAACAAUCGGUCUG [Fam1A.1 aminoacylation ribozyme variant]", "biotinyl-Phe-oxazolone", 9.15],
  ["GUUCACCUAGGUCACCGGGUG [Fam2.2 aminoacylation ribozyme variant]", "biotinyl-Phe-oxazolone", 28.5],
  ["CUAUUUCAAACCAUCGGUCUG [Fam1A.1 aminoacylation ribozyme variant]", "biotinyl-Phe-oxazolone", 0.809]
]}

====

test system: biotinyl-Met-oxazolone; test: self-aminoacylation, catalytic enhancement (BMO) (fold over background); higher = more active; k-Seq, kA / k0A0; sequences stand for … in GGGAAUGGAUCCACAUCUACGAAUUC…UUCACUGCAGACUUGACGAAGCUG
Variants at the floor of the assay were thinned out.
Label satisfied when self-aminoacylation is at or above 7; anything below gets not satisfied.

{"columns": ["residues", "classification"],
 "data": [
  ["CUACUUCAGUCAAUCGGUCUG [Fam1A.1 aminoacylation ribozyme variant]", "not satisfied"],
  ["AUUACCCUGGUCACCGCGUGA [Fam2.1 aminoacylation ribozyme variant]", "satisfied"],
  ["AUUACCCGGGUCAUGGAGUGA [Fam2.1 aminoacylation ribozyme variant]", "not satisfied"],
  ["AUUCACCUAGGUCCACGGGUG [Fam2.2 aminoacylation ribozyme variant]", "satisfied"],
  ["CUACUUCAAAAAAUCGGUCUU [Fam1A.1 aminoacylation ribozyme variant]", "not satisfied"],
  ["ACUCACCUAGGUCAUCGGGUA [Fam2.2 aminoacylation ribozyme variant]", "satisfied"],
  ["CCAGUCUUCAAGCAAUCGGUC [Fam1B.1 aminoacylation ribozyme variant]", "not satisfied"],
  ["CCGAACUUCAAGCAAUCGGUC [Fam1B.1 aminoacylation ribozyme variant]", "not satisfied"]
]}
